# target.system: Sodium-dependent serotonin transporter (Rattus norvegicus, UniProt P31652)
# Sequence (P31652 whole entry): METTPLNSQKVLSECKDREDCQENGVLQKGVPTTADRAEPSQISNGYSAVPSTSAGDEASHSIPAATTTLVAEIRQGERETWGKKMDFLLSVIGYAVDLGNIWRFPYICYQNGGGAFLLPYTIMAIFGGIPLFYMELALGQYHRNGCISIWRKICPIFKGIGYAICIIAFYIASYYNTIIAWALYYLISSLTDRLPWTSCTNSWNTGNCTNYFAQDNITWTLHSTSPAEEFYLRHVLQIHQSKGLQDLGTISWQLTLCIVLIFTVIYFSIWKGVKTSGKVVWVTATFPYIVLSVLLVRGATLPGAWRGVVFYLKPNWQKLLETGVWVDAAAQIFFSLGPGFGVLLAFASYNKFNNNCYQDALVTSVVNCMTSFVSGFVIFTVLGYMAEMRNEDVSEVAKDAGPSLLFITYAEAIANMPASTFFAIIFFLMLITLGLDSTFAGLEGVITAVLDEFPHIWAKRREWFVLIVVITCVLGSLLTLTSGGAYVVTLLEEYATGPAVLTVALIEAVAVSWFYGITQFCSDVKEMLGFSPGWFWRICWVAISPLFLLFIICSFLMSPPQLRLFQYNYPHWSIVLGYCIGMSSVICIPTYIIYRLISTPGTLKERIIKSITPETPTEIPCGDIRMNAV
# test.name: Inhibition of [3H]5-HT uptake at SERT in rat cortical synaptosomes
We begin with a simple list: items and their reported Ki.
Units required after the number.

Please review the entries below; each comes with its answer.
[[record]]
smi = "CC(=O)Nc1cccc(CCN2CCN(c3cccc4nc(C)ccc34)CC2)c1"
measured_property = "Ki"
reported_result = "1260 nM"

[[record]]
smi = "Cc1ccc2c(N3CCN(CCc4cccc(NC(=O)c5csc(C)n5)c4)CC3)cccc2n1"
measured_property = "Ki"
reported_result = "501 nM"

[[record]]
smi = "Cc1ccc2c(N3CCN(CCc4cccc(NC(=O)c5cccc(F)c5)c4)CC3)cccc2n1"
measured_property = "Ki"
reported_result = "631 nM"

[[record]]
smi = "Cc1ccc2c(N3CCN(CCc4cccc(NC(=O)Nc5cccc(F)c5)c4)CC3)cccc2n1"
measured_property = "Ki"
reported_result = "2510 nM"

[[record]]
smi = "CCOC(=O)Nc1cccc(CCN2CCN(c3cccc4nc(C)ccc34)CC2)c1"
measured_property = "Ki"
reported_result = "794 nM"

[[record]]
smi = "CCCNC(=O)Nc1cccc(CCN2CCN(c3cccc4nc(C)ccc34)CC2)c1"
measured_property = "Ki"
reported_result = "794 nM"


Note: attention shifts to another entry.
# input Please supply the value of reported Ki for the item Cc1ccc2c(N3CCN(CCc4cccc(NS(C)(=O)=O)c4)CC3)cccc2n1
# output 3160 nM

###

// reported pKi per item
# target.system: 5-hydroxytryptamine receptor 1B (Homo sapiens)
# test.name: Displacement of [3H]5-HT from human recombinant 5-HT1B receptor expressed in CHO cells
The quantity pKi is defined as the negative base-10 logarithm of the molar concentration.

Examples with answers:
[[record]]
smi = "CCC(=O)Nc1cccc(CCN2CCN(c3cccc4nc(C)ccc34)CC2)c1"
measured_property = "pKi"
reported_result = 8.90

[[record]]
smi = "Cc1ccc2c(N3CCN(CCc4cccc(NC(=O)Nc5cccc(F)c5)c4)CC3)cccc2n1"
measured_property = "pKi"
reported_result = 8.40

[[record]]
smi = "Cc1ccc2c(N3CCN(CCc4cccc(NC(=O)c5scnc5C)c4)CC3)cccc2n1"
measured_property = "pKi"
reported_result = 8.70


# input Return reported pKi. Input molecule: COc1cccc(C(=O)Nc2cccc(CCN3CCN(c4cccc5nc(C)ccc45)CC3)c2)c1
# output 8.80

# input Determine its reported pKi: Cc1ccc2c(N3CCN(CCc4cccc(NC(=O)Nc5ccccc5)c4)CC3)cccc2n1
# output 8.50

# input Please look at this molecule and report its pKi: CC(=O)N(C)c1cccc(CCN2CCN(c3cccc4nc(C)ccc34)CC2)c1
# output 7.90

# input Retrieve pKi measured for COc1ccccc1C(=O)Nc1cccc(CCN2CCN(c3cccc4nc(C)ccc34)CC2)c1 and print it.
# output 8.40

# input Tell me its pKi given Cc1ccc2c(N3CCN(CCc4cccc(NC(=O)c5cnccn5)c4)CC3)cccc2n1 as the entry.
# output 8.90

# input // Input: Cc1ccc2c(N3CCN(CCc4cccc(N)c4)CC3)cccc2n1 . Output its pKi only.
# output 8.10

###

// values below are reported Ki
# target.system: D(2) dopamine receptor (Homo sapiens, UniProt P14416)
# Sequence (P14416 whole entry): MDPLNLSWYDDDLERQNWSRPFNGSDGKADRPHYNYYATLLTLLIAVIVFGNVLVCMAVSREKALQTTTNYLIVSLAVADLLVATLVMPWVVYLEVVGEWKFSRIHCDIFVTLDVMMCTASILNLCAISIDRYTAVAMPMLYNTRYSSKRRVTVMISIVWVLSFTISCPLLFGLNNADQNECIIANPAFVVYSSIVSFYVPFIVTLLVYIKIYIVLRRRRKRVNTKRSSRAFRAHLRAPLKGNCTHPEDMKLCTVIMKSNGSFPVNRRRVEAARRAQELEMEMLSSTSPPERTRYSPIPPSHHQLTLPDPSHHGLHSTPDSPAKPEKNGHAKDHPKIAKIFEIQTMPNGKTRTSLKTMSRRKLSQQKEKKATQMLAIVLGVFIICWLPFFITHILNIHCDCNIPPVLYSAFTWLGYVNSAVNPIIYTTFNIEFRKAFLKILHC
# test.name: Binding affinity to human recombinant dopamine D2 receptor by radioligand displacement assay
Field format: number, assumed nM, no unit text.

Answered cases to consult:
[[record]]
smi = "Cc1ccc2c(N3CCN(CCc4cccc(-n5cccn5)c4)CC3)cccc2n1"
reported_result = 398

[[record]]
smi = "Cc1ccc2c(N3CCN(CCc4cccc(NC(=O)c5ccccc5)c4)CC3)cccc2n1"
reported_result = 398


# input // fetch Ki given entry Cc1ccc2c(N3CCN(CCc4cccc(NS(C)(=O)=O)c4)CC3)cccc2n1
# output 398

# input Return Ki (reported value) for this compound: CC(=O)Nc1cccc(CCN2CCN(c3cccc4nc(C)ccc34)CC2)c1
# output 398

###

# target.system: UniProtKB P08908
# Sequence (P08908 whole entry): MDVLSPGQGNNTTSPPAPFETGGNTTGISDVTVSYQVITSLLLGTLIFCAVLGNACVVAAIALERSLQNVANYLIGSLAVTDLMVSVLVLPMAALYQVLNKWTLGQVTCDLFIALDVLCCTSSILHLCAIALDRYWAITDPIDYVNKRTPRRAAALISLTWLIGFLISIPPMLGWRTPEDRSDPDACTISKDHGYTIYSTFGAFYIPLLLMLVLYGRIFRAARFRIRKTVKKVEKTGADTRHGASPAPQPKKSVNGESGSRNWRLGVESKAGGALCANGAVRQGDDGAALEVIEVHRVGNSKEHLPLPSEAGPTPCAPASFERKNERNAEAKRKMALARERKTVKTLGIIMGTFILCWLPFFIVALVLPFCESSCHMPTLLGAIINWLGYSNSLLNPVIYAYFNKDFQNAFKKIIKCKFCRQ
# test.name: Displacement of [3H]WAY100635 from human recombinant 5-HT1A receptor expressed in CHO cells
measured.property: pKi
A value of pKi is the negative decimal logarithm of a concentration given in moles per litre.

[[record]]
smi = "CC(=O)N(C)c1cccc(CCN2CCN(c3cccc4nc(C)ccc34)CC2)c1"
reported_result = 8.70

[[record]]
smi = "COc1cccc(C(=O)Nc2cccc(CCN3CCN(c4cccc5nc(C)ccc45)CC3)c2)c1"
reported_result = 8.70


Switching to the query record.
# input Give reported pKi for CCC(=O)Nc1cccc(CCN2CCN(c3cccc4nc(C)ccc34)CC2)c1 (UniProtKB P08908)
# output 8.70

###

# target.system: 5-hydroxytryptamine receptor 1A (Homo sapiens)
# test.name: Intrinsic activity at human recombinant 5-HT1A receptor expressed in HEK293 cells by [S35]GTPgammaS binding assay relative to 5-HT
# Type: functional, cell-based
measured.property: Intrinsic activity

Example compounds with recorded Intrinsic activity:
[[record]]
smi = "CCC(=O)Nc1cccc(CCN2CCN(c3cccc4nc(C)ccc34)CC2)c1"
measured_property = "Intrinsic activity"
reported_result = 0

[[record]]
smi = "CC(=O)N(C)c1cccc(CCN2CCN(c3cccc4nc(C)ccc34)CC2)c1"
measured_property = "Intrinsic activity"
reported_result = 0.1

[[record]]
smi = "Cc1ccc2c(N3CCN(CCc4cccc(NS(C)(=O)=O)c4)CC3)cccc2n1"
measured_property = "Intrinsic activity"
reported_result = 0

[[record]]
smi = "CCNC(=O)Nc1cccc(CCN2CCN(c3cccc4nc(C)ccc34)CC2)c1"
measured_property = "Intrinsic activity"
reported_result = 0


# input Answer with the recorded Intrinsic activity of Cc1ccc2c(N3CCN(CCc4cccc(N5CCNC5=O)c4)CC3)cccc2n1 only.
# output 0

###

# target.system: 5-hydroxytryptamine receptor 1B (Homo sapiens, UniProt P28222)
# Sequence (P28222 whole entry): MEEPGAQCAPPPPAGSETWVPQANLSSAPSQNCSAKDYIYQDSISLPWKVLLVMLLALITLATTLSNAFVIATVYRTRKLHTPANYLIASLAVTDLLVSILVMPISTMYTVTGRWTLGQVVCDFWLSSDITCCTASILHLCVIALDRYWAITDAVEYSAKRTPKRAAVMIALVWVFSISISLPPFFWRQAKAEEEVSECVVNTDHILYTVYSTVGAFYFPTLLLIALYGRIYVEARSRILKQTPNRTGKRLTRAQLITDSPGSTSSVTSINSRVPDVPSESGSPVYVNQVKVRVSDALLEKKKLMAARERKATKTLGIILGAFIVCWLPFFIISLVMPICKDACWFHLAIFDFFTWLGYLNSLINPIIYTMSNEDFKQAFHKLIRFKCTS
# test.name: Displacement of [3H]5-HT from human recombinant 5-HT1B receptor expressed in CHO cells
Below: a set of entries, each annotated with reported pKi.
Would you please state pKi, meaning minus log10 of the concentration in mol/L, as a bare number?

A selection of reference data follows.
[[record]]
smi = "CCNC(=O)Nc1cccc(CCN2CCN(c3cccc4nc(C)ccc34)CC2)c1"
measured_property = "pKi"
reported_result = 8.90

[[record]]
smi = "Cc1ccc2c(N3CCN(CCc4cccc(NC(=O)NC(C)(C)C)c4)CC3)cccc2n1"
measured_property = "pKi"
reported_result = 8.40

[[record]]
smi = "Cc1ccc2c(N3CCN(CCc4cccc(NS(C)(=O)=O)c4)CC3)cccc2n1"
measured_property = "pKi"
reported_result = 9.10

[[record]]
smi = "CCCNC(=O)Nc1cccc(CCN2CCN(c3cccc4nc(C)ccc34)CC2)c1"
measured_property = "pKi"
reported_result = 8.70

[[record]]
smi = "Cc1ccc2c(N3CCN(CCc4cccc(NC(=O)c5ccccc5)c4)CC3)cccc2n1"
measured_property = "pKi"
reported_result = 8.60

[[record]]
smi = "Cc1ccc2c(N3CCN(CCc4cccc(-n5cccn5)c4)CC3)cccc2n1"
measured_property = "pKi"
reported_result = 8.80

[[record]]
smi = "Cc1ccc2c(N3CCN(CCc4cccc(NC(=O)c5ccccc5F)c4)CC3)cccc2n1"
measured_property = "pKi"
reported_result = 8.50

[[record]]
smi = "Cc1ccc2c(N3CCN(CCc4cccc(NC(=O)c5csc(C)n5)c4)CC3)cccc2n1"
measured_property = "pKi"
reported_result = 8.50


Pending compound:
# input Quote pKi reported for COc1ccc(C(=O)Nc2cccc(CCN3CCN(c4cccc5nc(C)ccc45)CC3)c2)cc1 please.
# output 8.40
